experiment: physchem; details: pH 1.5, simulated gastric fluid, thermodynamic from solid
Counter-ions that a name gives are not always drawn.
Each entry below carries its reported solubility.
Reply with just the number (in µg/mL).

Look over these answered cases.
C=C[C@]1(C)C[C@@H](OC(=O)CSc2nc(-c3cc[n+](Cc4ccc(OC)cc4)cc3)cs2)[C@]2(C)[C@H](C)CC[C@]3(CCC(=O)[C@H]32)[C@@H](C)[C@@H]1O; 3120
C=C[C@]1(C)C[C@@H](OC(=O)CS[C@@H]2C[C@H]3CC[C@@H](C2)N3C)[C@]2(C)[C@H](C)CC[C@]3(CCC(=O)[C@H]32)[C@@H](C)[C@@H]1O [Retapamulin hydrochloride, retapamulin hydrochloride, reference compound]; 230
C=C[C@]1(C)C[C@@H](OC(=O)CSc2nc(-c3cc[n+](Cc4ccc(C)cc4)cc3)cs2)[C@]2(C)[C@H](C)CC[C@]3(CCC(=O)[C@H]32)[C@@H](C)[C@@H]1O; 2760

Consider the record given below.
compound `C=C[C@]1(C)C[C@@H](OC(=O)CSc2nc(-c3cc[n+](Cc4ccc([N+](=O)[O-])cc4)cc3)cs2)[C@]2(C)[C@H](C)CC[C@]3(CCC(=O)[C@H]32)[C@@H](C)[C@@H]1O` , solubility observed: 3450

* * *

In this section we review reported MIC values for a set of compounds.
tested on: Salmonella ATCC 14028; assay: MIC, microbroth dilution, standard strains; assay type: cell-based; settings: ATCC14028, ATCC 14028, read-out: Minimum inhibitory concentration
# unit: µg/mL | format: bare number

Known value: Salmonella ATCC 14028 MIC of the compound `C=C[C@]1(C)C[C@@H](OC(=O)CSc2nc(-c3cc[n+](Cc4ccc(C(C)(C)C)cc4)cc3)cs2)[C@]2(C)[C@H](C)CC[C@]3(CCC(=O)[C@H]32)[C@@H](C)[C@@H]1O` equals 2

Reading of MIC for `C=C[C@]1(C)C[C@@H](OC(=O)CSc2nc(-c3cc[n+](Cc4ccc(-c5ccccc5)cc4)cc3)cs2)[C@]2(C)[C@H](C)CC[C@]3(CCC(=O)[C@H]32)[C@@H](C)[C@@H]1O` with Salmonella ATCC 14028: 2

* * *

In this section, each of the molecules is paired with its reported MIC.
test system: Staphylococcus aureus ATCC 29213; experiment: MIC, microbroth dilution, standard strains; format: cell-based; settings: ATCC29213, ATCC 29213, read-out: Minimum inhibitory concentration
Please respond with the number in µg/mL and leave the unit unwritten.

The examples below pair each entry with its known result.
C=C[C@]1(C)C[C@@H](OC(=O)CSc2nc(-c3cc[n+](Cc4ccc(Cl)cc4)cc3)cs2)[C@]2(C)[C@H](C)CC[C@]3(CCC(=O)[C@H]32)[C@@H](C)[C@@H]1O; 0.125
C=C[C@]1(C)C[C@@H](OC(=O)CSc2nc(-c3cc[n+](Cc4ccc([N+](=O)[O-])cc4)cc3)cs2)[C@]2(C)[C@H](C)CC[C@]3(CCC(=O)[C@H]32)[C@@H](C)[C@@H]1O; 0.125
C=C[C@]1(C)C[C@@H](OC(=O)CSc2nc(-c3cc[n+](Cc4ccc(OC(F)(F)F)cc4)cc3)cs2)[C@]2(C)[C@H](C)CC[C@]3(CCC(=O)[C@H]32)[C@@H](C)[C@@H]1O; 2

response.value for `C=C[C@]1(C)C[C@@H](OC(=O)CSc2nc(-c3cc[n+](Cc4ccc(F)cc4)cc3)cs2)[C@]2(C)[C@H](C)CC[C@]3(CCC(=O)[C@H]32)[C@@H](C)[C@@H]1O` (field: MIC) = 1

`C=C[C@]1(C)C[C@@H](OC(=O)CSc2nc(-c3cc[n+](Cc4ccc(OC)cc4)cc3)cs2)[C@]2(C)[C@H](C)CC[C@]3(CCC(=O)[C@H]32)[C@@H](C)[C@@H]1O` yielded MIC of 0.5

Briefly, MIC measured for `C=C[C@]1(C)C[C@@H](OC(=O)CSc2nc(-c3cc[n+](Cc4cc(OC)cc(OC)c4)cc3)cs2)[C@]2(C)[C@H](C)CC[C@]3(CCC(=O)[C@H]32)[C@@H](C)[C@@H]1O` : 128

Looking up `C=C[C@]1(C)C[C@@H](OC(=O)CSc2nc(-c3cc[n+](Cc4ccc(C(F)(F)F)cc4)cc3)cs2)[C@]2(C)[C@H](C)CC[C@]3(CCC(=O)[C@H]32)[C@@H](C)[C@@H]1O` , I found its MIC recorded as 0.25

Looking up `C=C[C@]1(C)C[C@@H](OC(=O)CSc2nc(-c3cc[n+](Cc4ccc(C)cc4)cc3)cs2)[C@]2(C)[C@H](C)CC[C@]3(CCC(=O)[C@H]32)[C@@H](C)[C@@H]1O` , I found its MIC recorded as 0.0625

MIC recorded for this molecule, `C=C[C@]1(C)C[C@@H](OC(=O)CSc2nc(-c3cc[n+](Cc4cc(F)cc(F)c4)cc3)cs2)[C@]2(C)[C@H](C)CC[C@]3(CCC(=O)[C@H]32)[C@@H](C)[C@@H]1O` , is 64
